Origin of measurements: patent US10035800B2

biological target: BRD4 (BDII_E352-M457) (Homo sapiens, UniProt O60885); construct: protocol; made in house; test: TR-FRET bromodomain binding assay, second bromodomain of BRD4; details: TR-FRET assay protocol G (compound 0.92 μM-15 pM); 30 nM probe
pKi: −log10 of the molar value.
Reported pKi is given for each of the following compounds.
Metric: pKi

{"Compound": "Cn1cc2c3c(c[nH]c3c1=O)CN(c1cncnc1)c1ccc(CS(C)(=O)=O)cc1-2", "Assay system": "BRD4 (BDII_E352-M457) (Homo sapiens, UniProt O60885)", "Observed": 8.48}
{"Compound": "Cn1cc2c3c(c[nH]c3c1=O)CN(Cc1ccccn1)c1ccc(CS(C)(=O)=O)cc1-2", "Assay system": "BRD4 (BDII_E352-M457) (Homo sapiens, UniProt O60885)", "Observed": 7.72}
{"Compound": "COC1CCN(C(=O)C2c3c[nH]c4c(=O)n(C)cc(c34)-c3cc(CS(C)(=O)=O)ccc3N2c2ccc(F)cc2)CC1 (stereo not drawn)", "Assay system": "BRD4 (BDII_E352-M457) (Homo sapiens, UniProt O60885)", "Observed": 6.87}

###

biological target: BRD4 (BDII_E352-M457) (Homo sapiens); construct: protocol; made in house; assay: TR-FRET bromodomain binding assay, second bromodomain of BRD4; conditions: TR-FRET assay protocol G (compound 0.92 μM-15 pM); 30 nM probe
pKi: −log10 of the molar value.

{"Molecule": "Cn1cc2c3c(c[nH]c3c1=O)CN(C(=O)c1ccccc1F)c1ccc(CS(C)(=O)=O)cc1-2 [Example 113]", "pKi": 7.96}
{"Molecule": "Cn1cc2c3c(c[nH]c3c1=O)CN(C(=O)c1ccccc1)c1ccc(CS(C)(=O)=O)cc1-2 [Example 109]", "pKi": 7.81}
{"Molecule": "Cn1cc2c3c(c[nH]c3c1=O)CN(CC1CCNC1)c1ccc(CS(C)(=O)=O)cc1-2 (stereo not drawn) [Example 36]", "pKi": 8.20}

###

system: breast cancer cell line MX-1; assay: MX-1 cell line proliferation assay; type: cell-based; settings: MX-1 cells, 3-day proliferation assay, Cell Titer Glo; read-out: Cellular proliferation: EC50
pEC50: −log10 of the molar value.
Label class 1 when pEC50 >= 8; otherwise class 0.

{"Test smiles": "CCCNC(=O)N1Cc2c[nH]c3c(=O)n(C)cc(c23)-c2cc(CS(C)(=O)=O)ccc21", "Class label": "class 0"}
{"Test smiles": "Cn1cc2c3c(c[nH]c3c1=O)CN(c1ccc(F)cc1)c1ccc(CC#N)cc1-2", "Class label": "class 1"}
{"Test smiles": "Cn1cc2c3c(c[nH]c3c1=O)CN(c1ccc(Cl)cc1)c1ccc(CS(C)(=O)=O)cc1-2", "Class label": "class 1"}
{"Test smiles": "CCNC(=O)c1[nH]c2c(=O)n(C)cc3c2c1CN(c1ccc(F)cc1F)c1ccc(CS(C)(=O)=O)cc1-3", "Class label": "class 1"}

###

biological target: BRD4 (BDII_E352-M457) (Homo sapiens); construct: protocol; made in house; assay: TR-FRET bromodomain binding assay, second bromodomain of BRD4; conditions: TR-FRET assay protocol G (compound 0.92 μM-15 pM); 30 nM probe
Readings of Ki for the listed compounds

{"Compound": "CCCCCOC(=O)N1Cc2c[nH]c3c(=O)n(C)cc(c23)-c2cc(CS(C)(=O)=O)ccc21 [Example 88]", "Assay system": "BRD4 (BDII_E352-M457) (Homo sapiens)", "Ki (nM)": 1.76}
{"Compound": "Cn1cc2c3c(c[nH]c3c1=O)C(CCCOc1ccccc1)N(c1ccc(F)cc1F)c1ccc(CS(C)(=O)=O)cc1-2 (single isomer, unassigned) [Example 144]", "Assay system": "BRD4 (BDII_E352-M457) (Homo sapiens)", "Ki (nM)": 18.8}
{"Compound": "CCc1ccc(CCNC(=O)N2Cc3c[nH]c4c(=O)n(C)cc(c34)-c3cc(CS(C)(=O)=O)ccc32)cc1 [Example 63]", "Assay system": "BRD4 (BDII_E352-M457) (Homo sapiens)", "Ki (nM)": 73.6}
{"Compound": "Cn1cc2c3c(c[nH]c3c1=O)CN(C(=O)NC1CCCC1)c1ccc(CS(C)(=O)=O)cc1-2 [Example 44]", "Assay system": "BRD4 (BDII_E352-M457) (Homo sapiens)", "Ki (nM)": 2.47}
{"Compound": "Cc1cnc2c(c1)-c1cn(C)c(=O)c3[nH]cc(c13)CN2c1ccc(F)cc1 [Example 11]", "Assay system": "BRD4 (BDII_E352-M457) (Homo sapiens)", "Ki (nM)": 2.57}
{"Compound": "Cn1cc2c3c(c[nH]c3c1=O)C(C1CCOCC1)N(c1ccc(F)cc1F)c1ccc(CS(C)(=O)=O)cc1-2 (stereo not drawn) [Example 228]", "Assay system": "BRD4 (BDII_E352-M457) (Homo sapiens)", "Ki (nM)": 2.22}

###

Biological target: BRD4 (BDI_K57-E168) (Homo sapiens, UniProt O60885)
Construct: BD1: amino acids K57-E168; made in house
Assay: TR-FRET bromodomain binding assay, first bromodomain of BRD4
Conditions: TR-FRET assay protocol G (compound 0.92 μM-15 pM); 100 nM probe
Protocol: Bromodomain Domain Binding Assay A time-resolved fluorescence resonance energy transfer (TR-FRET) assay was used to determine the affinities of compounds of the Examples listed in Table 1 for each bromodomain of BRD4. His-tagged first (BD1: amino acids K57-E168) and second (BD2: amino acids […]) bromodomains of BRD4 were expressed and purified. […] After a one-hour equilibration at room temperature, TR-FRET ratios were determined using an Envision multilabel plate reader (Ex 340, Em 495/520). […]
Items are presented alongside their recorded log10 of Ki.
Metric: log10 of Ki (log10 of the value in nM)

{"Compound": "COc1cc(N2Cc3c[nH]c4c(=O)n(C)cc(c34)-c3cc(CS(C)(=O)=O)ccc32)cc(OC)c1OC [Example 211]", "log10 of Ki": 0.75}
{"Compound": "Cn1cc2c3c(c[nH]c3c1=O)C(CC(C)(C)C)N(c1ccc(F)cc1F)c1ccc(CS(C)(=O)=O)cc1-2 (stereo not shown) [Example 219]", "log10 of Ki": 1.60}
{"Compound": "Cn1cc2c3c(c[nH]c3c1=O)CN(c1ccc(F)cc1)c1ncc(F)cc1-2 [Example 32]", "log10 of Ki": 0.00}
{"Compound": "Cn1cc2c3c(c[nH]c3c1=O)CN(Cc1ccccn1)c1ccc(CS(C)(=O)=O)cc1-2 [Example 249]", "log10 of Ki": 0.79}
{"Compound": "Cn1cc2c3c(c[nH]c3c1=O)C(CCC(=O)NC1CCNCC1)N(c1ccc(F)cc1F)c1ccc(CS(C)(=O)=O)cc1-2 (stereo not shown) [Example 132]", "log10 of Ki": 1.05}
{"Compound": "Cn1cc2c3c(c[nH]c3c1=O)CN(CC1CCOC(C)(C)C1)c1ccc(CS(C)(=O)=O)cc1-2 (racemic) [Example 152]", "log10 of Ki": 0.86}

###

target: BRD4 (BDI_K57-E168) (Homo sapiens); construct: BD1: amino acids K57-E168; made in house; experiment: TR-FRET bromodomain binding assay, first bromodomain of BRD4; settings: TR-FRET assay protocol G (compound 0.92 μM-15 pM); 100 nM probe
pKi: −log10 of the molar value.
Parameter: pKi. Scope: all listed entries.
Metric: pKi

{"Compound": "Cn1cc2c3c(c[nH]c3c1=O)C(c1ccc(C#N)cc1)N(c1ccc(F)cc1F)c1ccc(CS(C)(=O)=O)cc1-2 (racemic)", "Metric": "pKi", "Observed": 7.79}
{"Compound": "Cn1cc2c3c(c[nH]c3c1=O)CN(Cc1ccccc1OCC(N)=O)c1ccc(CS(C)(=O)=O)cc1-2", "Metric": "pKi", "Observed": 8.03}
{"Compound": "Cn1cc(-c2[nH]c3c(=O)n(C)cc4c3c2CN(c2ccccn2)c2ccc(CS(C)(=O)=O)cc2-4)cn1", "Metric": "pKi", "Observed": 8.95}
{"Compound": "Cn1cc2c3c(c[nH]c3c1=O)C(C(=O)NCCC#N)N(c1ccc(F)cc1F)c1ccc(CS(C)(=O)=O)cc1-2 (racemic)", "Metric": "pKi", "Observed": 7.29}
{"Compound": "Cn1cc2c3c(c[nH]c3c1=O)CN(C(=O)OCCCCCl)c1ccc(CS(C)(=O)=O)cc1-2", "Metric": "pKi", "Observed": 8.24}

###

target: BRD4 (BDII_E352-M457) (Homo sapiens, UniProt O60885); construct: protocol; made in house; assay: TR-FRET bromodomain binding assay, second bromodomain of BRD4; settings: TR-FRET assay protocol G (compound 0.92 μM-15 pM); 30 nM probe
pKi: −log10 of the molar value.
Recorded pKi for the following molecules

{"Molecule": "COC(=O)CCCN1Cc2c[nH]c3c(=O)n(C)cc(c23)-c2cc(F)cc(F)c21", "pKi": 8.26}
{"Molecule": "Cn1cc2c3c(c[nH]c3c1=O)C(CN)N(c1ccc(F)cc1F)c1ccc(CS(C)(=O)=O)cc1-2 (stereo not drawn)", "pKi": 8.60}
{"Molecule": "CCCNC(=O)N1Cc2c[nH]c3c(=O)n(C)cc(c23)-c2cc(CS(C)(=O)=O)ccc21", "pKi": 8.55}
{"Molecule": "CNC(=O)c1cc(CS(C)(=O)=O)cc2c1N(c1ccc(F)cc1F)Cc1c[nH]c3c(=O)n(C)cc-2c13", "pKi": 8.75}
{"Molecule": "Cn1cc2c3c(c[nH]c3c1=O)CN(C(=O)OCCF)c1ccc(CS(C)(=O)=O)cc1-2", "pKi": 8.79}
{"Molecule": "Cn1cc2c3c(c[nH]c3c1=O)CN(C1CCOCC1)c1ccc(CS(C)(=O)=O)cc1-2", "pKi": 8.64}
